Parameter kon: see the listing below.
- ASSAY SYSTEM: T1, human CD3 E&D complex protein (Sino Biological Inc., CT026H0323H) (human, UniProt P07766 23-126; P04234 22-105)
- T1 construct: bought heterodimer; also called human CD3 protein (CT026H0323H)
- T1 sequence (P07766 23-126, chain 1 of 2): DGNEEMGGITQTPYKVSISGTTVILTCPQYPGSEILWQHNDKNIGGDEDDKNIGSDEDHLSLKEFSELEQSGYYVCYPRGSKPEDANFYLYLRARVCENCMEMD
- T1 sequence (P04234 22-105, chain 2 of 2): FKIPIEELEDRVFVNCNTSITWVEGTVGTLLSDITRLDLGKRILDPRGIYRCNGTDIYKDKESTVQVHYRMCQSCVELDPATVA
- TEST DETAILS: BLI, antibody on sensor

# BINDER, kon / M⁻¹ s⁻¹
records = [
    ("hzsp34.110 (antibody, human IgG1, lambda, L234A L235A, V domains shown, CDR mutant of hzsp34.24; IgG1 L234A L235A, lambda) VH: EVQLVESGGGLVQPGGSLKLSCAASGFTFNTYAMNWVRQASGKGLEWVGRIRSKYNNYATYYADSVKDRFTISRDDSKSTLYLQMNSLKTEDTAVYYCARHGNFGQSYVSWFAYWGQGTTVTVSS VL: QAVVTQEPSLTVSPGGTVTLTCRSSTGAVTTSNYANWVQQKPGQAPRGLIGGTNKRAPGVPARFSGSLLGDKAALTLLGAQPEDEAEYYCALWYSGLWVFGQGTKLTVLG", 210000),
    ("hzsp34.83 (antibody, human IgG1, lambda, L234A L235A, V domains shown, CDR mutant of hzsp34.24; IgG1 L234A L235A, lambda) VH: EVQLVESGGGLVQPGGSLKLSCAASGFTFNTYAMNWVRQASGKGLEWVGRIRSKANNYATYYADSVKDRFTISRDDSKSTLYLQMNSLKTEDTAVYYCARHGNFGQSYVSWFAYWGQGTTVTVSS VL: QAVVTQEPSLTVSPGGTVTLTCRSSTGAVTTSNYANWVQQKPGQAPRGLIGGTNKRAPGVPARFSGSLLGDKAALTLLGAQPEDEAEYYCALWYSNLWVFGQGTKLTVLG", 216000),
    ("hzsp34.92 (antibody, human IgG1, lambda, L234A L235A, V domains shown, CDR mutant of hzsp34.24; IgG1 L234A L235A, lambda) VH: EVQLVESGGGLVQPGGSLKLSCAASGFTFNTYAMNWVRQASGKGLEWVGRIRSKYNNYATYYADSVKDRFTISRDDSKSTLYLQMNSLKTEDTAVYYCARHGNFGQRYVSWFAYWGQGTTVTVSS VL: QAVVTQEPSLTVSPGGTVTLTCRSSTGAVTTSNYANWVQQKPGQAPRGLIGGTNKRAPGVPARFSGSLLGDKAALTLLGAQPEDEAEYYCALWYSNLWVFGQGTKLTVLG", 259000),
]
